tested on: A549; experiment: In vitro cytotoxic activity was determined against lung carcinoma (A549) cell line; assay type: functional; settings: Homo sapiens, read-out: ED50 (the source's name)
reported-metric: EC50 (µg/mL)

                                   compound  value_operator  value
0                 Cc1cc(O)n2c(n1)nc1ccccc12               >     10
1  COc1ccc2c3c([nH]c2c1)C(C)N(N=O)CC3 (configuration not stated)               >     10
2  CCC(CC)C1NC(C(=O)O)Cc2c1[nH]c1cc(OC)ccc21 (configuration not stated)               >     20
3  CCCCCCCCCCCCCCCCOc1ccc2c(c1)[nH]c1c(C)nccc12               =      5
4  CCCCCCCCC1NC(C(=O)O)Cc2c1[nH]c1cc(OC)ccc21 (configuration not stated)               >     20
5               COc1ccc2c3ccnc(C)c3n(C)c2c1               =    4.2
6             COc1ccc2c(c1)[nH]c1c(C)nccc12               =    2.4
